Listed below: melting point values for each entry.

compound	melting point
Cc1cc(NC(=O)CCl)on1	106 to 108 °C
COC(=O)C1CCC(C(=O)O)CC1 (stereo not drawn)	85 to 87 °C
O=C(O)c1cccc(-n2cnnn2)c1	168 to 170 °C

The reported melting point of the compound O=C1CNC(=O)N1c1cccc([N+](=O)[O-])c1 was 164 to 166 °C

get_value(item= CC(=O)NCCc1ccc(C(=O)O)cc1 , readout=melting point) returns 175 to 177 °C

Item: O=S(=O)(Cl)c1ccc(OCC(F)(F)F)nc1 | melting point: 55 to 57 °C

GET /value?item= Cc1ccc(C(N)C(=O)O)cc1 (stereo not drawn) &field=melting point returns 269 to 271 °C

For reference, reported melting point for O=C(CCl)NCCc1ccsc1 stands at 75 to 77 °C

Field melting point (entry O=C(O)CCN1C(=O)CCc2ccccc21 ) reads 157 to 159 °C

Summary for this compound, Cc1sc(N)nc1-c1ccc(F)c(F)c1 : melting point is 135 to 137 °C

melting point reported for this compound COc1cc(NC(=O)Cc2cccs2)c(C(=O)O)cc1OC : 195 to 197 °C

Briefly, melting point measured for O=C1CN=C(S)N1Cc1ccccc1 : < 17 °C

For this compound ( Cc1cc(C=O)c(C)n1-c1ccc2c(c1)CCC2 ), measured melting point is 71 to 75 °C

Record COC(=O)CNC(=O)c1cccc(N)c1 , field melting point: 103 to 105 °C

// sample CN(CC(=O)O)C(=O)Nc1cccc2ccccc12 , its melting point was 126 to 128 °C

Summary for this compound, CC(C)(C)CCN1CCNCC1 : melting point is 119 to 122 °C

Source of measurements: a melting point compilation (Tetko et al.)
